Biological target: GDP-bound KRAS protein (aa 1-169), containing both G12C and C118A amino acid substitutions (Homo sapiens (Human), UniProt P01116, C118A/G12C)
Sequence (P01116 other isoform, or with tags, fused parts or gaps G12C/C118A): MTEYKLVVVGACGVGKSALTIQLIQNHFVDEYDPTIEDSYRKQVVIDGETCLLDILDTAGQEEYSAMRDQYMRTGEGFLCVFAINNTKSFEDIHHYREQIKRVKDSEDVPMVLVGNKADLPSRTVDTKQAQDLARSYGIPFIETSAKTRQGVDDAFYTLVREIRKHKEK
Assay: Coupled nucleotide exchange assay (SOS-mediated nucleotide exchange, AlphaScreen)
Format: biochemical
Settings: 5 min compound pre-incubation
Output 1 for Coupled exchange IC50 (5 min; μM) not less than 0.09 µM; output -1 otherwise.

See these solved cases before continuing.
{"molecule": "C=CC(=O)N1[C@H](C)CN(c2nc(=O)n(-c3c(C(C)C)cnnc3C(C)C)c3nc(-c4ccccc4F)c(Cl)cc23)C[C@@H]1C [Example 206-1]", "class_assignment": 1}
{"molecule": "C=CC(=O)N1C[C@H](C)N(c2nc(=O)n(-c3c(C)cc([S+](C)[O-])cc3C(C)C)c3nc(-c4ccccc4C)c(Cl)cc23)C[C@H]1C (single isomer, unassigned) [Example 213-2]", "class_assignment": -1}

Could you tell me if the measured Coupled exchange IC50 (5 min; μM) of C=CC(=O)N1C[C@H](C)N(c2nc(=O)n(-c3c(C(C)C)cc(N4CCC4)nc3C(C)C)c3nc(-c4ccccc4F)c(Cl)cc23)C[C@H]1C (single isomer, unassigned) [Example 182-1] reaches 0.09 µM or more?
1

Could you tell me if the measured Coupled exchange IC50 (5 min; μM) of C=CC(=O)N1C[C@H](C)N(c2nc(=O)n(-c3c(C(C)C)nc(NC(C)=O)nc3C(C)C)c3nc(-c4ccccc4F)c(Cl)cc23)C[C@H]1C [Example 188] reaches 0.09 µM or more?
-1

----------
Biological target: GDP-bound KRAS protein (aa 1-169), containing both G12C and C118A amino acid substitutions (Homo sapiens (Human), UniProt P01116, C118A/G12C)
Assay: Coupled nucleotide exchange assay (SOS-mediated nucleotide exchange, AlphaScreen)
Type: biochemical
Conditions: read-out: Coupled exchange IC50 (5 min; μM); 5 min compound pre-incubation
Below: a set of entries, each annotated with reported IC50.

Below, each entry is followed by its recorded IC50 result.
{"compound": "C=CC(=O)N1C[C@H](C)N(c2nc(=O)n(-c3c(Cl)ncnc3C(C)C)c3nc(-c4ccccc4F)c(Cl)cc23)C[C@H]1C (single isomer, unassigned) [Example 102-5-1]", "endpoint_result": "0.031 µM"}
{"compound": "C=CC(=O)N1C[C@H](C)N(c2nc(=O)n(-c3c(C)ccnc3C(C)C)c3nc(C4=CCCCCC4)c(Cl)cc23)C[C@H]1C (atropisomer, axis not shown; (M)) [Example 92-10]", "endpoint_result": "0.059 µM"}

If you can, please state the reported IC50 value of C=CC(=O)N1C[C@H](C)N(c2nc(=O)n(-c3c(C)ccnc3C(C)C)c3nc(-c4ccccc4C4CC4)c(Cl)cc23)C[C@H]1C (atropisomer, axis not shown; (M)) [Example 92-4] .
0.044 µM

If you can, please state the reported IC50 value of C=CC(=O)N1C[C@H](C)N(c2nc(=O)n(CC(C)(C)C#N)c3nc(-c4ccccc4F)c(Cl)cc23)C[C@H]1C [Example 106-8] .
3.35 µM

If you can, please state the reported IC50 value of C=CC(=O)N1C[C@H](C)N(c2nc(=O)n(-c3c(N(C)C)ccnc3C(C)C)c3nc(-c4ccccc4S(C)(=O)=O)c(Cl)cc23)C[C@H]1C [Example 55-53] .
0.356 µM

If you can, please state the reported IC50 value of C=CC(=O)N1C[C@H](C)N(c2nc(=O)n(-c3c(N(C)C)ccnc3C(C)C)c3nc(-c4ccccc4C)c(Cl)cc23)C[C@H]1C (single isomer, unassigned) [Example 103-7-1] .
0.653 µM

If you can, please state the reported IC50 value of C=CC(=O)N1C[C@H](C)N(c2nc(=O)n(-c3c(C(C)C)ccnc3C(C)C)c3nc(-c4ccccc4C)c(F)cc23)C[C@H]1C (single isomer, unassigned) [Example 125-5] .
0.46 µM

If you can, please state the reported IC50 value of C=CC(=O)N1C[C@H](C)N(c2nc(=O)n(-c3c(C(C)C)ccnc3C(C)C)c3nc(-c4ccccc4F)c(Cl)cc23)C[C@H]1C [Example 125-1] .
0.028 µM

If you can, please state the reported IC50 value of C=CC(=O)N1C[C@H](C)N(c2nc(=O)n(-c3c(C)nc(C)nc3C(C)C)c3nc(-c4ccccc4F)c(C)cc23)C[C@H]1C [Example 195] .
0.488 µM

If you can, please state the reported IC50 value of C=CC(=O)N1C[C@H](C)N(c2nc(=O)n(-c3c(C)ccnc3C(C)C)c3nc(-c4ccccc4C)c(Cl)cc23)C[C@H]1C (atropisomer, axis not shown; (M)) [Example 92-45] .
0.025 µM

If you can, please state the reported IC50 value of C=CC(=O)N1C[C@H](C)N(c2nc(=O)n(-c3c(C)ccnc3C(C)C)c3nc(-c4cccc(F)c4C)c(Cl)cc23)C[C@H]1C (atropisomer, axis not shown; (M)) [Example 92-59] .
0.028 µM

If you can, please state the reported IC50 value of C=CC(=O)N1C[C@H](C)N(c2nc(=O)n(-c3c(C)cc(CN(C)C)nc3C(C)C)c3nc(-c4ccccc4F)c(Cl)cc23)C[C@H]1C [Example 121-1] .
0.195 µM

----------
Target: GDP-bound KRAS protein (aa 1-169), containing both G12C and C118A amino acid substitutions (Homo sapiens (Human), UniProt P01116, C118A/G12C)
Assay: Coupled nucleotide exchange assay (SOS-mediated nucleotide exchange, AlphaScreen)
Assay type: biochemical
Conditions: read-out: Coupled exchange IC50 (5 min; μM); 5 min compound pre-incubation
parameter: IC50 (µM)
Supply the numeric figure in µM, leaving out any unit text.

{"compound": "C=CC(=O)N1C[C@H](C)N(c2nc(=O)n(-c3c(C(C)C)nc(CN4CCOCC4)nc3C(C)C)c3nc(-c4ccccc4F)c(Cl)cc23)C[C@H]1C [Example 162]", "IC50 [µM]": 0.133}

If you can, please state the reported IC50 value of C=CC(=O)N1C[C@H](C)N(c2nc(=O)n(-c3c(C)ccnc3C(C)C)c3nc(-c4cc(Cl)ccc4F)c(Cl)cc23)C[C@H]1C (atropisomer, axis not shown; (M)) [Example 92-44] .
0.04

If you can, please state the reported IC50 value of C=CC(=O)N1C[C@H](C)N(c2nc(=O)n(-c3c(C)ccnc3C(C)C)c3nc(-c4ccccc4NC(=O)C(C)(C)C)c(Cl)cc23)C[C@H]1C (atropisomer, axis not shown; (M)) [Example 92-35] .
0.758
